Species on record: Cavia porcellus
PROTOCOL_NOTES: The compound was tested for hypotensive activity against guinea pig detrusor (bladder) strip mildly depolarized with 15 mM KCl
Type: functional
MEASUREMENT_TYPE: IC50 (nM)

Solved entries:
| MOLECULE | IC50, nM |
| --- | --- |
| C[C@@]1(C(F)(F)F)CN(c2cccc[n+]2[O-])c2cc(S(=O)(=O)c3ccccc3)ccc2O1 | 0.28 |
| C[C@]1(C(F)(F)F)CN(c2cccc[n+]2[O-])c2cc(S(=O)(=O)c3ccccc3)ccc2O1 | 0.68 |
| CC1(C)CN(c2cccc[n+]2[O-])c2cc([N+](=O)[O-])ccc2O1 | 74 |

(a) CC1(C(F)(F)F)CN(c2cccc[n+]2[O-])c2cc(S(=O)(=O)c3ccccc3)ccc2O1 (racemic)
(b) CC1(C)CN(c2cccc[n+]2[O-])c2cc(S(=O)(=O)c3ccccc3)ccc2O1
Of the pair a and b , name the member with the lesser recorded IC50. Answer = label.
a
(a: 0.54 nM, b: 4.1 nM)
